Data credit: patent US12458581B2

For each entry below, report its pH values compound value.
- EXPERIMENT_NOTES: pH measurement of 0.1 M aqueous solutions
- Type: physicochemical
- CONDITIONS_USED: 0.1 M in millipore water, r.t., average of at least three measurements
- Description: For the pH measurements, a Seven2Go portable pH meter S2 (pH measuring-range: −2 to 20; resolution: 0.01) with an InLab Ultra Micro-ISM electrode (measuring range: pH −1 to pH 11; low temperature membrane glass type; ceramic diaphragm; reference system with Ag^+ ion trap by argenthal) as well as with an in-lab routine pH electrode (measuring range: pH 0 to pH 14; ceramic diaphragm; reference system with Ag^+ ion trap by argenthal) from Mettler-Toledo AG (Analytical, Switzerland) was used. […]
One number for each entry.

Observe how each entry below is paired with its result.
CC(O)C(=O)[O-].CC(O)C(=O)[O-].CCC(=O)O.CCC(=O)O.[Mg+2] (stereo not shown) [MgLac-HProp [2]] = 4.45
CC(=O)O.CC(=O)O.O=C([O-])CCC(=O)[O-].[Ca+2] [CaSuc-HAc [2]] = 4.69
O=C([O-])/C=C/C(=O)[O-].O=CO.O=CO.[Ca+2] [CaFum-HFo [2]] = 3.58

Each compound below has a recorded value; state its pH values compound.
1. CC(=O)O.CC(=O)O.CC(=O)O.CC(=O)O.O=C([O-])C(O)C(O)C(=O)[O-].[Ca+2] (stereo not shown) [CaT-HAc [4], calcium tartrate with loaded acetic acid]
2. CC(=O)O.CC(=O)O.O=C[O-].O=C[O-].[Mg+2] [MgFo-HAc [2]]

Found:
[3.33, 5.10]
